- EXPERIMENT NOTES: chemical genetic growth profiling, strain panel (AID 1159580);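 note: tested at 20 µM; growth read once vehicle control cultures reached saturation at 30 °C; 1 = growth at the plate median or of vehicle wells; lower values mean less growth of the strain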
- EXPERIMENTAL CONTEXT: S. cerevisiae deletion strains, growth OD, locus YLR027C, strain aat2
Out of some 5,500 compounds screened, about 2,000 (36%) were called active. Roughly 18% stayed inconclusive and do not appear here. Cut-off read from the data, not from the text of the source: active = normalized growth mostly below about 0.91 (no sharp cut-off); inconclusive = no clear call, values can overlap the other calls; inactive = mostly above about 0.92. The list shows a part of the results.
Your reply should match one of these outcome classes. true (1) (active), false (0) (inactive)

**Query** // param item: CC(C)c1cccc(C(C)C)c1O ; yields the recorded call
**Result** false (0)

**Query** And the next one, CN(C)CC[C@H](c1ccc(Cl)cc1)c1ccccn1 ?
**Result** false (0)

**Query** And the next one, CC(=O)N1CCN(c2ccc(OCC3CO[C@](Cn4ccnc4)(c4ccc(Cl)cc4Cl)O3)cc2)CC1 (stereo not given in full) ?
**Result** true (1)

**Query** And the next one, O=C(CCCN1CCC(O)(c2ccc(Cl)cc2)CC1)c1ccc(F)cc1 ?
**Result** true (1)

**Query** And the next one, CCc1ccc2c(O)c3c(cc2c1C(=O)OC)C(=O)c1c(O)ccc(O)c1C3=O ?
**Result** false (0)

**Query** And the next one, C[C@@H](CO)NC(=O)C1C=C2c3cccc4[nH]cc(c34)C[C@H]2N(C)C1 (stereo not given in full) ?
**Result** false (0)

**Query** And the next one, COC(=O)[C@H]1[C@H]2C[C@H]3c4[nH]c5cc(OC)ccc5c4CCN3C[C@H]2C[C@@H](OC(=O)c2cc(OC)c(OC)c(OC)c2)[C@@H]1OC ?
**Result** false (0)

**Query** And the next one, CC1=CC(=O)C2C(C)(C)CCC[C@]2(C)[C@@]1(O)CCc1ccoc1 (stereo not given in full) ?
**Result** false (0)

**Query** And the next one, COC(=O)NC(=S)Nc1ccccc1NC(=S)NC(=O)OC ?
**Result** false (0)

**Query** And the next one, CNC[C@H](O)c1cccc(O)c1 ?
**Result** false (0)

**Query** And the next one, NCCCN ?
**Result** false (0)

**Query** And the next one, COC(=O)CC1C(C)(C)C(OC(C)=O)[C@@H]2[C@@H](OC(C)=O)[C@]34O[C@@]2(O)[C@]1(C)C3CC[C@]1(C)C4=CC(=O)O[C@H]1c1ccoc1 (stereo not given in full) ?
**Result** false (0)

**Query** And the next one, CC1(C)C(O)CC(=O)C2(C)C1CC(O)C1(C)C2CCC2(C)C(c3ccoc3)OC(=O)C3OC321 (stereo not given) ?
**Result** false (0)

**Query** And the next one, CC1(C)[C@@H]2CC[C@@]1(C)C(=O)C2 ?
**Result** false (0)

**Query** And the next one, CC12CCC(=O)C=C1CCc1ccccc12 (stereo not given) ?
**Result** false (0)

**Query** And the next one, CCn1nc(C(=O)O)c(=O)c2cc3c(cc21)OCO3 ?
**Result** false (0)

**Query** And the next one, COc1cccc2c1CCC1=CC(=O)CC[C@@]12C ?
**Result** false (0)

**Query** And the next one, Cc1cc(N)c2ccccc2[n+]1CCCCCCCCCC[n+]1c(C)cc(N)c2ccccc21 ?
**Result** true (1)

**Query** And the next one, OC1(c2ccc(Cl)c(C(F)(F)F)c2)CCN(CCCC(c2ccc(F)cc2)c2ccc(F)cc2)CC1 ?
**Result** true (1)

**Query** And the next one, C[C@H]1O[C@H](O[C@H]2[C@H](O)[C@@H](O)[C@@H](O[C@H]3[C@H](O)[C@@H](O)C(O)O[C@@H]3CO)O[C@@H]2CO)[C@H](O)[C@@H](O)[C@@H]1N[C@H]1C=C(CO)[C@@H](O)[C@H](O)[C@H]1O (stereo not given in full) ?
**Result** false (0)
